Source of measurements: PubChem BioAssay (NCI)

System: EKVX NSCLC
Assay Explanation: NCI-60 one-dose screen, 48 h (100 = growth as untreated, 0 = no growth, -100 = all killed)
Assay Conditions: 10 µM unless noted
Compounds without any hit were thinned out: in the full panel of roughly 83,000, 20% have a hit.
growth overview
Readout Name: growth (%)

compound=CSc1ccc(/C(=N/N=C(N)N)c2ccc(Cl)cc2)cc1 unit_tag=% observed_value=35.1
compound=Cc1ccc(-c2csc(N/N=C/c3cccs3)n2)cc1 unit_tag=% observed_value=65.2
compound=O=C(CSc1nc2ccccc2c(=O)n1CCc1ccccc1)Nc1ccc(S(=O)(=O)Nc2ccc(Cl)nn2)cc1 unit_tag=% observed_value=86.9
compound=O=C(Nc1ccc(N=Cc2c(O)[nH]c3ccccc23)cc1)Nc1ccc(S(=O)(=O)Nc2ncccn2)cc1 unit_tag=% observed_value=98.1
compound=O=S(=O)(NCCCNc1nccc(-c2[nH]c(-c3ccccc3)nc2-c2ccc(F)c(O)c2)n1)c1ccc(C(F)(F)F)cc1 unit_tag=% observed_value=69.7
compound=COc1ccccc1/C=C1\Oc2ccc(O)c(O)c2C1=O unit_tag=% observed_value=78.5
compound=C/C(=N\NC(=O)/C=C/CC(=O)O)c1nnn(-c2ccc([N+](=O)[O-])cc2)c1C unit_tag=% observed_value=101
compound="CCOP(=O)(OCC)OC[C@]12CC[C@@H](C)[C@H](C)C1C1=CC[C@@H]3[C@@]4(C)CCCNC(C)(C)[C@@H]4CC[C@@]3(C)[C@]1(C)CC2 (some centres undefined)" unit_tag=% observed_value=36.8
compound=Cc1cc2nc(C(Cl)Cl)nc(-c3ccc(S(=O)(=O)N(C)C)cc3)n2n1 unit_tag=% observed_value=48.7
compound=C#CCOc1ccc(/C=N/Nc2nc(-c3ccc(OC)cc3)cs2)cc1 unit_tag=% observed_value=62.8
compound=CCOC(=O)c1ccc(NC2=CC(=O)C(C)=C(C)C2=O)cc1 unit_tag=% observed_value=94.6
compound=CC(C)(C)Nc1nc2c(OCCc3ccccc3)cccn2c1-c1cccc(Oc2ccccc2)c1 unit_tag=% observed_value=13.5
compound=COc1ccc2[nH]cc(/C=N/Nc3ccnc4cc(Cl)ccc34)c2c1 unit_tag=% observed_value=-96.5
compound=Cc1ccc(-c2nc(SCC(=O)c3ccccc3)nc(Nc3ccc(S(N)(=O)=O)cc3)c2C#N)cc1 unit_tag=% observed_value=99.8
compound=O=c1c2ccccc2cc2n1CCN=C2c1ccccc1 unit_tag=% observed_value=101
compound=COc1cc(C(C)=C(c2ccc(OCCN(C)C)cc2)c2ccc(OCCN(C)C)cc2)ccc1F unit_tag=% observed_value=96.1
compound=CN1CCN(c2ccc(Nc3nc(NCCNS(=O)(=O)c4ccc(Cl)cc4)c4sccc4n3)cc2)CC1 unit_tag=% observed_value=91.6
compound=O=S(=O)(NCCCNc1nccc(-c2[nH]c(-c3ccccc3)nc2-c2ccc(F)c(O)c2)n1)c1cccc(F)c1 unit_tag=% observed_value=99.8
compound=O=C(N/N=C/c1cc2ccccc2nc1Cl)c1cc(-c2nc3ccccc3[nH]2)nc2ccccc12 unit_tag=% observed_value=93.5
